Where a name gives a salt, the structure may show the parent alone.
Answer each item with its documented melting point.

Worked examples, 2 compounds total:
The recorded melting point for entry "CC(C)c1ccc2c(c1)nc(NCCN1CCOCC1)n[n+]2[O-]" equals 145 to 147 °C

The recorded melting point for entry CN(C)CCN(C)c1nc2ccccc2[n+]([O-])n1 (as salt: hydrochloride) equals 220 to 223 °C

Next:
The recorded melting point for entry [O-][n+]1nc(-c2ccccc2)nc2ccccc21 [Compound 57, 3-Phenyl-1,2,4-benzotriazine 1-oxide] equals 125 to 127 °C

---

Answer each item with its documented melting point.

Worked examples, 8 compounds total:
The recorded melting point for entry "CCN(CC)CCNc1nc2cccc(C)c2[n+]([O-])n1" equals 89 to 91 °C

The recorded melting point for entry "COc1cc2c(cc1C)nc(Cl)n[n+]2[O-]" equals 200 to 202 °C

The recorded melting point for entry "Nc1nc2ccc(OCCN3CCOCC3)cc2[n+]([O-])n1" equals 175 to 181 °C

The recorded melting point for entry "O=C(O)CNc1nc2ccccc2[n+]([O-])n1" equals 217 to 219 °C

The recorded melting point for entry "Nc1nc2cccc(C(F)(F)F)c2[n+]([O-])n1" equals 280 to 286 °C (dec.)

The recorded melting point for entry "Cc1ccc2c(c1)nc(N)n[n+]2[O-]" equals 263 °C (dec.)

The recorded melting point for entry "Cc1cc(C)c2c(c1)nc(NCCN(C)C)n[n+]2[O-]" equals 176 to 179 °C

The recorded melting point for entry COc1ccc2c(c1)nc(NCCN1C(C)CCCC1C)n[n+]2[O-] (stereo not drawn) equals 170 to 171 °C

Batch of 4 compounds: report melting point for each.
1. C=CCc1nc2cc(C)ccc2[n+]([O-])n1
2. CC(C)(C)c1ccc2c(c1)nc(NCCN1CCOCC1)n[n+]2[O-]
3. [O-][n+]1nc(Cl)nc2cc(Cl)ccc21 [Compound 133, 3,6-Dichloro-1,2,4-benzotriazine 1-Oxide]
4. CSc1cccc2nc(N)n[n+]([O-])c12 (hydrate or solvate)

Response:
["65 to 67 °C", "132 to 134 °C", "149 to 151 °C", "271 to 275 °C"]
